This collection of values is drawn from patent US6506738B1.

# Test system: respiratory syncytial virus Long strain
# procedure summary: Antiviral activity against respiratory syncytial virus in HEp-2 cells (MTT cell protection)
# Assay type: cell-based
# experimental context: human respiratory syncytial virus, HEp-2 cells infected with RSV Long strain, compound added 1 hour post infection, 4 days, read-out: EC50 (concentration that produces 50% cell protection)
pEC50: −log10 of the molar value.

smiles representation | pEC50
NC(=O)c1ncn([C@@H]2O[C@H](CO)[C@@H](O)[C@H]2O)n1 | 5.52
